measurement-target: CYP2C9 (Homo sapiens)
Construct: 0.1 mg/mL protein human liver microsomes (BD Gentest); tissue BD Gentest; host or cells: human liver microsomes
Sequence (P11712 whole entry): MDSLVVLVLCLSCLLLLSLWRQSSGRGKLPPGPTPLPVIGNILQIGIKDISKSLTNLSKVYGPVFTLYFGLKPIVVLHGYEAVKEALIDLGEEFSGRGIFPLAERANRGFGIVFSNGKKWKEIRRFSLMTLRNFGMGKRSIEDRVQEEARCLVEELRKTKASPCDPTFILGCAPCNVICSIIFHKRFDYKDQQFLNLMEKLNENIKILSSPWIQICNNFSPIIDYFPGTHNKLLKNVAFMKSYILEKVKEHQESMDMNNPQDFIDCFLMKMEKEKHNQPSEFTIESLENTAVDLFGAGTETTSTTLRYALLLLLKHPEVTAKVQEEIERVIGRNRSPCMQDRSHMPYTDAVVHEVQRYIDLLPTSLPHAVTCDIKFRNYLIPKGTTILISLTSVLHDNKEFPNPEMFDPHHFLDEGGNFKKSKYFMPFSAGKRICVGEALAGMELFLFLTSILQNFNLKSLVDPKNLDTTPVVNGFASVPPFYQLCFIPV
method-summary: Cocktail assay for CYPs, diclofenac 4′-hydroxylation (CYP2C9), human liver microsomes
Type: biochemical
cond: 5 μM diclofenac, 0.1 mg/mL human liver microsomes, 10 min at 37° C.; read-out: CYP IC50 (nM) 2C9
property: IC50 (nM)
Answers are plain numbers, in nM.

O=S(=O)(c1ccc(N2CCN(CCO)CC2)nc1)N1CCCC1c1ccccc1-c1cncn1CCc1ccc(F)cc1 (single isomer, unassigned) [Compound 35b] = 6930
CC(C)OC(=O)N1CCCC1c1ccccc1-c1cncn1CCc1ccc(F)cc1 (single isomer, unassigned) [Compound 39b] = 6380

Data request: Look up IC50 for this molecule: COc1ccc(OC)c(S(=O)(=O)N2CCCC2c2cccc(-c3cncn3CCc3ccc(F)cc3)c2)c1 (single isomer, unassigned) [Compound 53b]
Data returned: 216

====

measurement-target: CYP1A2 (Homo sapiens)
Construct: 0.1 mg/mL protein human liver microsomes (BD Gentest); tissue BD Gentest; host or cells: human liver microsomes
Sequence (P05177 1-516): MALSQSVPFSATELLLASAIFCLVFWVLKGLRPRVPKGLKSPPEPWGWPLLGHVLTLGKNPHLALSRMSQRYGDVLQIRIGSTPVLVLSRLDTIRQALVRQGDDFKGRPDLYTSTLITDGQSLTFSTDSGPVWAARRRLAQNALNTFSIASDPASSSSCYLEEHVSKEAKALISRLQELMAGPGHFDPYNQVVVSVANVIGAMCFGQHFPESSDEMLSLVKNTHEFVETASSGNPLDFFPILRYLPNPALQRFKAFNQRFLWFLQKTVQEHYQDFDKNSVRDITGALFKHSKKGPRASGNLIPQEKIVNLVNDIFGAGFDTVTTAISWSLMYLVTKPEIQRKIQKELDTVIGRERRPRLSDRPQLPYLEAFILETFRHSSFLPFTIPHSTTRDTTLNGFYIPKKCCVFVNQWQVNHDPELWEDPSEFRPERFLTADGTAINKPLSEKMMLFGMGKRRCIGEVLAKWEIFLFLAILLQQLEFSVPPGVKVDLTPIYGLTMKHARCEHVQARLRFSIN
method-summary: Cocktail assay for CYPs, phenacetin O-deethylation (CYP1A2), human liver microsomes
Format: biochemical
cond: 10 μM phenacetin, 0.1 mg/mL human liver microsomes, 10 min at 37° C.; read-out: CYP IC50 (nM) 1A2
Protocol: Determination of IC50 in a Cocktail Assay for CYPs 1A2, 2C9, 2C19, 2D6 and 3A4: This assay was performed in a standard 96-well plate design. […] The production of the metabolite of each probe substrate was determined after incubation for 10 min at 37° C. Quantitation of the metabolite peak area ratio against an internal standard (tolbutamide) was determined by LC/MS/MS analysis following acetonitrile treatment of the incubations. […]
property: IC50 (nM)
One number for each entry, in nM.

Example entries begin here.
O=C(c1ccc(N2CCOCC2)nc1)N1CCCC1c1cccc(-c2cncn2CCc2ccc(F)cc2)c1 (stereo not shown) = 6500
CC(=O)Nc1ncc(S(=O)(=O)NCc2cccc(-c3cncn3CCc3ccc(F)cc3)c2)s1 = 99

Okay, now this molecule:
Data request: Field: IC50 (CYP1A2 (Homo sapiens)). Entry: C[C@H](c1ccc(F)cc1)n1cncc1-c1cccc2c1CCN(S(=O)(=O)c1cnc(N3CCN4C[C@H](O)C[C@H]4C3)s1)C2
Data returned: 2500
